- subject-of-test: nicotinic acetylcholine receptor (Rattus norvegicus, UniProt P09483+P12390)
- Construct: Synaptic membranes were prepared by homogenizing the cortical tissue; from tissue; host or cells: cerebral cortex synaptic membranes of male Sprague-Dawley rats
- Sequence (P09483 31-630): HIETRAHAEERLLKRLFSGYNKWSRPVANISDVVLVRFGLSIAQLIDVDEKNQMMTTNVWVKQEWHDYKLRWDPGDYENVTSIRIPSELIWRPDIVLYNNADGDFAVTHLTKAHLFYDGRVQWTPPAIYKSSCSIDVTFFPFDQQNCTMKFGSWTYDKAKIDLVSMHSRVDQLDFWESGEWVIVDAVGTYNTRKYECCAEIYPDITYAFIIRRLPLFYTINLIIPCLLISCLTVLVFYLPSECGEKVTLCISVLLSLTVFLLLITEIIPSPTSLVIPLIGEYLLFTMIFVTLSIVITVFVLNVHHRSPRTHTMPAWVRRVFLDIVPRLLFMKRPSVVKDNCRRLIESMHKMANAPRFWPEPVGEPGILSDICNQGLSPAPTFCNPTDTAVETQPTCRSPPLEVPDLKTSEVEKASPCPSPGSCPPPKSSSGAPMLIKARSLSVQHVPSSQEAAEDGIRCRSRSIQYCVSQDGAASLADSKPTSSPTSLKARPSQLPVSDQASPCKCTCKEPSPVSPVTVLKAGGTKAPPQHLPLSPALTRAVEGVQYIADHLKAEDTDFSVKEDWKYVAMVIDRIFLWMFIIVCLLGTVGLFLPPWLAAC
- Sequence (P12390 26-500 limits assumed): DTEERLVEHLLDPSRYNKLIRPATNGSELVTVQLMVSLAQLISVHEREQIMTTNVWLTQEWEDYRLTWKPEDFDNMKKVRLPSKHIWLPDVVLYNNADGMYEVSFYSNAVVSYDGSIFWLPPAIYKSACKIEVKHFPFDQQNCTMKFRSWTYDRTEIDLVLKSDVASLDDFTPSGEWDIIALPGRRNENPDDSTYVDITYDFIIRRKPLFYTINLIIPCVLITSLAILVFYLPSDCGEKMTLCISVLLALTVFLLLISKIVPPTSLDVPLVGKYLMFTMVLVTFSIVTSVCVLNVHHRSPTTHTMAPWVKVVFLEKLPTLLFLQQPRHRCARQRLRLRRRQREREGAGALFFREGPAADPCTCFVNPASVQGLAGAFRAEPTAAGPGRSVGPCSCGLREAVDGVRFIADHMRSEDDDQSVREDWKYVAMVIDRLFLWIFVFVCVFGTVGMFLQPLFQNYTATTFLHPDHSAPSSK
- assay-summary: 3H-nicotine binding/displacement, rat cerebral membranes
measurement-label: IC50 (µM)
Numbers only, in µM.

Simply: "C#Cc1cncc(CN2CCCC2)c1" , nicotinic acetylcholine receptor (Rattus norvegicus, UniProt P09483+P12390), IC50 = 0.041

----------
Can you tell me IC50 for the items I'm about to list?
- subject-of-test: muscarinic acetylcholine receptors
- assay-summary: 3H-QNB (quinuclidinyl benzilate) displacement, rat cerebral membranes
- Format: binding
- run-conditions: displacement of 60 pM 3H-QNB, rat cerebral membranes

Give one value of IC50 per listed compound.
1. c1ccc(-c2cncc(CN3CCCC3)c2)cc1
2. CN(Cc1cccnc1)C1CC1
3. c1ccc(-c2cncc(CN3CCC3)c2)cc1
4. CC(C)NC(C)c1cccnc1 (centres unmarked)
5. CC(NC1CC1)c1cccnc1 (centres unmarked)
6. c1cncc(CNC2CC2)c1

["11.2 µM", "> 100 µM", "6 µM", "> 100 µM", "> 100 µM", "> 100 µM"]

Give one value of IC50 per listed compound.
1. CN(CCCc1ccccc1)Cc1cccnc1
2. Oc1ccc(-c2cncc(CN3CCCC3)c2)cc1Cl
3. c1ccc(CCCNCc2cccnc2)cc1
4. CNC(C)c1cccnc1 (centres unmarked)
5. Oc1ccc(-c2cncc(CN3CCCC3)c2)cc1

1: 36 µM; 2: > 10 µM; 3: 29 µM; 4: > 100 µM; 5: > 10 µM

----------
- Test system: rat thalamus slices (3H-norepinephrine release)
- Assay type: cell-based
- run-conditions: rat thalamus slices; compound concentration not given
- Method: Measurement of ^3 H-dopamine release from rat striatal slices was performed according to the method of Sacaan et al. (J. Neurochem. 59:245 (1992)). […] The perfusate was collected in plastic scintillation vials in 3-min fractions, and the radioactivity was estimated by scintillation spectrophotometry. […] The fractional effiux of radiolabeled neurotransmitter was estimated as the amount of radioactivity in the perfusate fraction relative to the total amount in the tissue. […]
Can you tell me 3H-Norepinephrine, Thalamus, percent fractional release for the items I'm about to list?
One number for each entry, in %.

Give one value of 3H-Norepinephrine, Thalamus, percent fractional release per listed molecule.
1. C#Cc1cncc(CN2CCCC2)c1
2. Oc1ccc(-c2cncc(CN3CCCC3)c2)cc1Cl
3. c1ccc(-c2cncc(CN3CCCC3)c2)cc1
4. Oc1ccc(-c2cncc(CN3CCCC3)c2)cc1

1: 0.67; 2: 1.44; 3: 1.42; 4: 2.36

----------
- subject-of-test: nicotinic acetylcholine receptor (Rattus norvegicus, UniProt P09483+P12390)
- Construct: Synaptic membranes were prepared by homogenizing the cortical tissue; from tissue; host or cells: cerebral cortex synaptic membranes of male Sprague-Dawley rats
- assay-summary: 3H-nicotine binding/displacement, rat cerebral membranes
- run-conditions: displacement of 1.9 nM 3H-nicotine, rat cerebral membranes, 3 μM atropine; read-out: IC50, Nicotine
Y if IC50 is below 2 µM. N if not; exact matches included in N.

Would you please look over these solved cases?
Field: below-cutoff. Rule: recorded IC50 strictly less than 2 µM. Subject: c1cncc(CNC2CC2)c1 [N-Cyclopropyl-3-picolylamine]
N

Field: below-cutoff. Rule: recorded IC50 strictly less than 2 µM. Subject: "Oc1ccc(-c2cncc(CN3CCCC3)c2)cc1Cl"
Y

Field: below-cutoff. Rule: recorded IC50 strictly less than 2 µM. Subject: CN(CCCc1ccccc1)Cc1cccnc1 [N-Methyl-N-phenylpropyl-3-picolylamine]
N

Field: below-cutoff. Rule: recorded IC50 strictly less than 2 µM. Subject: CC(c1cccnc1)N(C)C (stereo not drawn) [α-Methyl-N,N-dimethyl-3-picolylamine]
Y

Field: below-cutoff. Rule: recorded IC50 strictly less than 2 µM. Subject: c1ccc(CCCNCc2cccnc2)cc1 [N-Phenylpropyl-3-picolylamine]
N

Continuing:
Field: below-cutoff. Rule: recorded IC50 strictly less than 2 µM. Subject: CN(Cc1cccnc1)C1CC1 [N-Methyl-N-cyclopropyl-3-picolylamine]
N

Field: below-cutoff. Rule: recorded IC50 strictly less than 2 µM. Subject: "c1ccc(-c2cncc(CN3CCC3)c2)cc1"
Y

Field: below-cutoff. Rule: recorded IC50 strictly less than 2 µM. Subject: "Oc1ccc(-c2cncc(CN3CCCC3)c2)cc1"
Y

Field: below-cutoff. Rule: recorded IC50 strictly less than 2 µM. Subject: CNC(C)c1cccnc1 (stereo not drawn) [α-Methyl-N-methyl-3-picolylamine]
N

Field: below-cutoff. Rule: recorded IC50 strictly less than 2 µM. Subject: c1ccc(-c2cncc(CN3CCCC3)c2)cc1 [5-Phenyl-3-(N-pyrrolidinomethyl)pyridine]
Y

Field: below-cutoff. Rule: recorded IC50 strictly less than 2 µM. Subject: CC(C)NC(C)c1cccnc1 (stereo not drawn) [α-Methyl-N-isopropyl-3-picolylamine]
N

Field: below-cutoff. Rule: recorded IC50 strictly less than 2 µM. Subject: CC(NC1CC1)c1cccnc1 (stereo not drawn) [α-Methyl-N-cyclopropyl-3-picolylamine]
N

Where do these numbers come from? They come from patent US6194581A.
